This collection of values is drawn from ChEMBL document CHEMBL2385021.

experiment: Inhibition of L-type calcium channel diltiazem binding site (unknown origin); set-up: species or system Homo sapiens
Experimental endpoint: pIC50
Remember, pIC50 is on a log scale: it is -log10 of the molar concentration.

Form: compound = "CN(C)C(=O)[C@H]1C[C@@H]1c1ccc(-c2ncn(C)c2Sc2ccc(Cl)cn2)cc1" ; pIC50 = 4.80

* * *

target: Fatty-acid amide hydrolase 1 (Rattus norvegicus); experiment: Inhibition of rat FAAH expressed in CHO cell lysates assessed as arachidonyl-7-amino-4-methylcoumarin amide hydrolysis to 7-amino 4-methyl coumarin preincubated for 15 mins prior to substrate addition measured after 1 to 3 hrs by fluorescence assay
Sequence (P97612 whole entry): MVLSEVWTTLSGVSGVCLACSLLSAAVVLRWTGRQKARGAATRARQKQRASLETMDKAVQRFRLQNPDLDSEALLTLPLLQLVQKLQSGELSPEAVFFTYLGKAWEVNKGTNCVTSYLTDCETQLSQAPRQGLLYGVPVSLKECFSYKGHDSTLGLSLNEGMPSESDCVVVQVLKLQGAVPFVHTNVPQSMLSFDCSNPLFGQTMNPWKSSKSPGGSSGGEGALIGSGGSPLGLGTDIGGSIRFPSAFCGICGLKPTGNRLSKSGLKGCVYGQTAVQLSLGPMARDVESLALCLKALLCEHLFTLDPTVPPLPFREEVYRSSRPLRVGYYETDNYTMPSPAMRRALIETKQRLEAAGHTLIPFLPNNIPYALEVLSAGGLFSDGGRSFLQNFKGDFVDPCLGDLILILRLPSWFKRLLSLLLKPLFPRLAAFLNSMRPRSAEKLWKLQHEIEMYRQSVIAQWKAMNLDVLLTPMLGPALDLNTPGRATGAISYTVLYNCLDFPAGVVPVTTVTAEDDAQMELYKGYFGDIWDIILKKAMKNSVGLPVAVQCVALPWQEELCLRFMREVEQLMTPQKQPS
Experimental endpoint: pIC50
Remember, pIC50 is on a log scale: it is -log10 of the molar concentration.

Some solved cases for reference:
Mol: CN(CCF)C(=O)[C@H]1C[C@@H]1c1ccc(-c2ncn(C)c2Sc2ccc(Cl)cn2)cc1
pIC50: 8.52
--
Mol: Cn1cnc(-c2ccc([C@H]3C[C@@H]3C(N)=O)cc2)c1Sc1ccc(Cl)cn1
pIC50: 7.92
--
Mol: CNC(=O)[C@H]1C[C@@H]1c1ccc(-c2ncn(C)c2Sc2ccc(Cl)cc2)cc1
pIC50: 8.85

Recorded pIC50 for "[11CH3]n1cc(Sc2ccc(Cl)cc2)c(-c2ccc3ccc(C(N)=O)nc3c2)n1" on Fatty-acid amide hydrolase 1 (Rattus norvegicus) was 9.40

Recorded pIC50 for "Cn1cnc(-c2ccc([C@H]3C[C@@H]3C(=O)NCCF)cc2)c1Sc1ccc(Cl)cc1" on Fatty-acid amide hydrolase 1 (Rattus norvegicus) was 8.85

Recorded pIC50 for "CN(CCF)C(=O)[C@H]1C[C@@H]1c1ccc(-c2ncn(C)c2Sc2ccc(Cl)cc2)cc1" on Fatty-acid amide hydrolase 1 (Rattus norvegicus) was 8.89

Recorded pIC50 for "CN(C)C(=O)[C@H]1C[C@@H]1c1ccc(-c2nc[nH]c2Sc2ccc(Cl)cn2)cc1" on Fatty-acid amide hydrolase 1 (Rattus norvegicus) was 6.84

* * *

target: Cannabinoid receptor 2 (Homo sapiens)
Sequence (P34972 whole entry): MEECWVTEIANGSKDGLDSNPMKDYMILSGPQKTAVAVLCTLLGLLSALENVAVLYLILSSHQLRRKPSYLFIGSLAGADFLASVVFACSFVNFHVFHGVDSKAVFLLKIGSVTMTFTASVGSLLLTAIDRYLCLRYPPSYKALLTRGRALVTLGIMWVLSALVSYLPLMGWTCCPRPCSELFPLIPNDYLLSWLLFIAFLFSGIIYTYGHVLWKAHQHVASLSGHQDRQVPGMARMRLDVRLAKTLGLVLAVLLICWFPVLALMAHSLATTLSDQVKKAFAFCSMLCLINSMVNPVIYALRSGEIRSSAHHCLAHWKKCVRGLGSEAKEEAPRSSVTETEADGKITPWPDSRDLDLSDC
Experimental endpoint: pIC50
Remember, pIC50 is on a log scale: it is -log10 of the molar concentration.

Form: compound = "CN(C)C(=O)[C@H]1C[C@@H]1c1ccc(-c2ncn(C)c2Sc2ccc(Cl)cn2)cc1" ; pIC50 = 3.82

* * *

Biological target: Fatty-acid amide hydrolase 1 (Homo sapiens)
Sequence (O00519 whole entry): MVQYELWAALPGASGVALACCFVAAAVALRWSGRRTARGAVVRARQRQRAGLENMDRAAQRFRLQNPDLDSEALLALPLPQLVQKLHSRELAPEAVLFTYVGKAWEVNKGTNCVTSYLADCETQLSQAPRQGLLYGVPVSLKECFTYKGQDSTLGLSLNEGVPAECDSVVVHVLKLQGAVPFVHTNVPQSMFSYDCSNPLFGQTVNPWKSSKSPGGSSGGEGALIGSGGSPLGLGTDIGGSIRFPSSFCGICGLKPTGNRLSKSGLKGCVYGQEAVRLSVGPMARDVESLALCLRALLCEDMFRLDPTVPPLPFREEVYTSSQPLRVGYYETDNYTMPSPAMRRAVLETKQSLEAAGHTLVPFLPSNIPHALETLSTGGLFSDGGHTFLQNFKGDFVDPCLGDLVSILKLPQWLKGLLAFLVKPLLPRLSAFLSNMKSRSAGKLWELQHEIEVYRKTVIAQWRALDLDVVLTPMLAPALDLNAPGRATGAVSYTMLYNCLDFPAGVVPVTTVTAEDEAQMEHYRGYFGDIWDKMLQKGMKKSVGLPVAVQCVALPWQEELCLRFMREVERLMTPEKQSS
Experimental endpoint: Kd (nM)
The answer is to be given in nM; state only the numeric part.

Form: compound = "[3H]C([3H])([3H])n1cnc(-c2ccc([C@H]3C[C@@H]3C(=O)N(C)C)cc2)c1Sc1ccc(Cl)cn1" ; Kd = 0.8
